Values were extracted from patent US8232407B2.

Exercise: for every item that follows, state its recorded Aphis craccivoral Mortality (%) 500 ppm.
Tested on: Aphis craccivoral
Experiment: Insecticidal activities to aphids, immersion method
Format: in vivo
Conditions: in vivo
Give bare numbers, in %.

molecule	measurement.target	readout.name	unit.of.measurement	reading
O=[N+]([O-])C(=Cc1ccccc1O)C1=NCCN1Cc1ccc(Cl)nc1	Aphis craccivoral	Aphis craccivoral Mortality (%) 500 ppm	%	56
O=[N+]([O-])C(=Cc1oc(Br)cc1Br)C1=NCCCN1Cc1ccc(Cl)nc1	Aphis craccivoral	Aphis craccivoral Mortality (%) 500 ppm	%	100
CC(c1ccc(Cl)nc1)N1CCN=C1C(=Cc1ccc([N+](=O)[O-])s1)[N+](=O)[O-] (racemic)	Aphis craccivoral	Aphis craccivoral Mortality (%) 500 ppm	%	100
CN=C(C(=Cc1ccc(Br)o1)[N+](=O)[O-])N(C)Cc1cnc(Cl)s1	Aphis craccivoral	Aphis craccivoral Mortality (%) 500 ppm	%	87
CCN(Cc1cnc(Cl)s1)C(=NC)C(=Cc1ccc([N+](=O)[O-])s1)[N+](=O)[O-]	Aphis craccivoral	Aphis craccivoral Mortality (%) 500 ppm	%	65
CN=C(NCc1ccc(Cl)nc1)C(=Cc1ccoc1)[N+](=O)[O-]	Aphis craccivoral	Aphis craccivoral Mortality (%) 500 ppm	%	67

Could you report Aphis craccivoral Mortality (%) 500 ppm for every entry in the following list?
1. CCN=C(C(=Cc1ccco1)[N+](=O)[O-])N(CC)Cc1ccc(Cl)nc1
2. O=[N+]([O-])C(=Cc1ccc([N+](=O)[O-])o1)C1=NCCCN1Cc1ccc(Cl)nc1

[86, 100]

* * *

Test system: Pseudaletia separate Walker
Experiment: Insecticidal activities to armyworm, leaf dipping and feeding
Format: in vivo
Conditions: in vivo
readout.name: Pseudaletia separate Walker Mortality (%) 500 ppm
Give bare numbers, in %.

molecule	unit.of.measurement	reading
O=[N+]([O-])C(=Cc1ccc(CO)o1)C1=NCCN1Cc1ccc(Cl)nc1	%	100
O=[N+]([O-])C(=Cc1oc(Br)cc1Br)C1=NCCN1Cc1cnc(Cl)s1	%	100
CCc1ccc(C=C(C2=NCCN2Cc2ccc(Cl)nc2)[N+](=O)[O-])o1	%	100
O=[N+]([O-])C(=Cc1cncs1)C1=NCCN1Cc1ccc(Cl)nc1	%	100
N#CC(=Cc1cc(Br)cs1)C1=NCCN1Cc1ccc(Cl)nc1	%	100
O=[N+]([O-])C(=Cc1ccoc1)C1=NCCN1CC1CCOC1 (stereo not drawn)	%	100

Could you report Pseudaletia separate Walker Mortality (%) 500 ppm for every entry in the following list?
1. CC(c1ccc(Cl)nc1)N1CCN=C1C(=Cc1ccc([N+](=O)[O-])o1)[N+](=O)[O-] (racemic)
2. CC(c1ccc(Cl)nc1)N1CCN=C1C(=Cc1ccc[nH]1)[N+](=O)[O-] (racemic)
3. CC[N+]1=C(C(=Cc2ccco2)[N+](=O)[O-])N(Cc2ccc(Cl)nc2)CC1.[Cl-]
4. CC(c1ccc(Cl)nc1)N1CCN=C1C(=Cc1ccc(Br)o1)[N+](=O)[O-] (racemic)
5. O=[N+]([O-])C(=Cc1ccc(Br)s1)C1=NCCN1Cc1cnc(Cl)s1
6. CCc1ccc(C=C(C2=[N+](C)CCN2Cc2ccc(Cl)nc2)[N+](=O)[O-])s1.[Cl-]
7. O=[N+]([O-])C(=Cc1cc(Cl)cs1)C1=NCCCN1Cc1ccc(Cl)nc1
8. CCc1ccc(C=C(C2=NCCN2Cc2ccc(Cl)nc2)[N+](=O)[O-])s1

100
100
100
100
100
100
87
100

Could you report Pseudaletia separate Walker Mortality (%) 500 ppm for every entry in the following list?
1. O=[N+]([O-])C(=Cc1cc(Cl)c(Cl)o1)C1=NCCN1CC1CCOC1 (stereo not drawn)
2. CC(c1ccc(Cl)nc1)N1CCN=C1C(=Cc1ccsc1)[N+](=O)[O-] (racemic)
3. O=[N+]([O-])C(=Cc1ccc(Br)o1)C1=NCCN1Cc1ccc(Cl)nc1
4. O=[N+]([O-])C(=Cc1oc(Br)cc1Br)C1=NCCCN1Cc1ccc(Cl)nc1
5. O=[N+]([O-])C(=Cc1cccs1)C1=NCCCN1Cc1ccc(Cl)nc1
6. O=[N+]([O-])C(=Cc1ccoc1)C1=NCCCN1Cc1ccc(Cl)nc1
7. C[N+]1=C(C(=Cc2ccc([N+](=O)[O-])o2)[N+](=O)[O-])N(Cc2cnc(Cl)s2)CC1.[Cl-]

68
100
100
100
100
100
100

Could you report Pseudaletia separate Walker Mortality (%) 500 ppm for every entry in the following list?
1. O=[N+]([O-])C(=Cc1ccccn1)C1=NCCN1Cc1ccc(Cl)nc1
2. O=[N+]([O-])C(=Cc1ccc(Cl)o1)C1=NCCN1Cc1cnc(Cl)s1
3. Cc1ccc(C=C(C2=[N+](C)CCN2Cc2ccc(Cl)nc2)[N+](=O)[O-])o1.[Cl-]
4. O=[N+]([O-])C(=Cc1oc(Cl)cc1Cl)C1=NCCCN1Cc1ccc(Cl)nc1
5. O=[N+]([O-])C(=Cc1ccc([N+](=O)[O-])o1)C1=NCCN1CC1CCOC1 (stereo not drawn)

1. 57
2. 100
3. 100
4. 100
5. 100

Could you report Pseudaletia separate Walker Mortality (%) 500 ppm for every entry in the following list?
1. C[N+]1=C(C(=Cc2ccc([N+](=O)[O-])s2)[N+](=O)[O-])N(Cc2cnc(Cl)s2)CC1.[Cl-]
2. CC(=C(C1=NCCN1Cc1ccc(Cl)nc1)[N+](=O)[O-])c1ccc(Br)s1
3. C[N+]1=C(C(=Cc2ccco2)[N+](=O)[O-])N(Cc2ccc(Cl)nc2)CC1.[Cl-]

100
46
100

Could you report Pseudaletia separate Walker Mortality (%) 500 ppm for every entry in the following list?
1. CC(c1ccc(Cl)nc1)N1CCN=C1C(=Cc1ccco1)[N+](=O)[O-] (racemic)
2. CC(=C(C1=NCCN1Cc1ccc(Cl)nc1)[N+](=O)[O-])c1cc(Cl)cs1
3. C[N+]1=C(C(=Cc2ccc[nH]2)[N+](=O)[O-])N(Cc2ccc(Cl)nc2)CC1.[Cl-]
4. N#CC(=Cc1ccsc1)C1=NCCN1Cc1ccc(Cl)nc1

[100, 59, 100, 100]

* * *

Test system: Nilaparvata lugens
Assay: Insecticidal activities to plant hopper, spraying method
Assay type: in vivo
Settings: in vivo
readout.name: Nilaparvata lugens Mortality (%) 500 ppm
Answers are plain numbers, in %.

Use the examples below as a reference point.
CC[N+]1=C(C(=Cc2ccc(Cl)s2)[N+](=O)[O-])N(Cc2ccc(Cl)nc2)CC1.[Cl-] 100
O=[N+]([O-])C(=Cc1ccccc1O)C1=NCCN1Cc1ccc(Cl)nc1 76
CN=C(NCc1ccc(Cl)nc1)C(=Cc1ccc([N+](=O)[O-])o1)[N+](=O)[O-] 87

Here is another molecule to look at.
Param item = C[N+]1=C(C(=Cc2sc(Br)cc2Br)[N+](=O)[O-])N(Cc2ccc(Cl)nc2)CC1.[Cl-] ; retrieve measured Nilaparvata lugens Mortality (%) 500 ppm.
100

* * *

Tested on: Aphis craccivoral
Assay: Insecticidal activities to aphids, immersion method
Format: in vivo
Conditions: in vivo
readout.name: Aphis craccivoral Mortality (%) 500 ppm
Please answer using the number first and the unit second.

Use the examples below as a reference point.
compound	reading
O=[N+]([O-])C(=Cc1ccsc1)C1=NCCN1Cc1cnc(Cl)s1 [Compound 84]	100%
CCN=C(C(=Cc1ccc[nH]1)[N+](=O)[O-])N(C)Cc1ccc(Cl)nc1 [Compound 178]	100%
C[N+]1=C(C(=Cc2cc(Br)cs2)[N+](=O)[O-])N(Cc2ccc(Cl)nc2)CC1.[Cl-] [Compound 265]	100%
CC[N+]1=C(C(=Cc2ccco2)[N+](=O)[O-])N(Cc2ccc(Cl)nc2)CC1.[Cl-] [Compound 285]	100%
O=[N+]([O-])C(=Cc1cc(Cl)co1)C1=NCCN1Cc1cnc(Cl)s1 [Compound 73]	100%
CCN(C(=NC)C(=Cc1ccco1)[N+](=O)[O-])C(C)c1ccc(Cl)nc1 (stereo not shown) [Compound 205]	56%
CCc1ccc(C=C(C2=NCCN2Cc2ccc(Cl)nc2)[N+](=O)[O-])o1 [Compound 14]	100%
CC(=C(C1=NCCN1C(C)c1ccc(Cl)nc1)[N+](=O)[O-])c1ccc(Cl)o1 (racemic) [Compound 136]	100%
O=[N+]([O-])C(=Cc1ccc([N+](=O)[O-])o1)C1=NCCN1CC1CCOC1 (stereo not shown) [Compound 93]	78%
O=[N+]([O-])C(=Cc1cc(Cl)c(Cl)o1)C1=NCCN1CC1CCOC1 (stereo not shown) [Compound 98]	76%

Could you report Aphis craccivoral Mortality (%) 500 ppm for every entry in the following list?
1. O=[N+]([O-])C(=Cc1cc(Br)co1)C1=NCCN1Cc1cnc(Cl)s1 [Compound 74]
2. CC[N+]1=C(C(=Cc2ccc([N+](=O)[O-])o2)[N+](=O)[O-])N(Cc2ccc(Cl)nc2)CC1.[Cl-] [Compound 287]
3. CCN(Cc1ccc(Cl)nc1)C(=NC)C(=C(C)c1ccc([N+](=O)[O-])o1)[N+](=O)[O-] [Compound 197]
4. CCN(Cc1ccc(Cl)nc1)C(=NC)C(=Cc1ccc[nH]1)[N+](=O)[O-] [Compound 243]
5. CN=C(C(=Cc1ccco1)[N+](=O)[O-])N(C)Cc1ccc(Cl)nc1 [Compound 161]
6. CCN(C(=NC)C(=Cc1ccoc1)[N+](=O)[O-])C(C)c1ccc(Cl)nc1 (stereo not shown) [Compound 206]

100%
100%
98%
96%
100%
65%
